Target: 5-HT1A receptor (Homo sapiens, UniProt P08908)
Sequence (P08908 whole entry): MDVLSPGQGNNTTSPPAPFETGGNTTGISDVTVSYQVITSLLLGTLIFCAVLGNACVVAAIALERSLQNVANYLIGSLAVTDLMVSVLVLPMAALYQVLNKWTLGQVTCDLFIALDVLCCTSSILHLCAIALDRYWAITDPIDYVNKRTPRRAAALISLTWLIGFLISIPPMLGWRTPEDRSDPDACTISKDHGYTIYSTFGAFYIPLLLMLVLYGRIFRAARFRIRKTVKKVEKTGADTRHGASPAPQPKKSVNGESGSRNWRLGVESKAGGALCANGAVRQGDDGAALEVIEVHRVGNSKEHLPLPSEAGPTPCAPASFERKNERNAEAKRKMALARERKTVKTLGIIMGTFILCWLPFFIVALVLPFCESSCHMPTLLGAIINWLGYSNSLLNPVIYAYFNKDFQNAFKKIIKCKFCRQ
Assay: 5-HT1A receptor cAMP agonist test
Conditions: HEK293 cell strain stably expressing 5-HT1A receptor; cAMP; forskolin 2.5×10^−7 M

compound	EC50
O=C1Nc2cc(OCCCCN3CCN(c4cccc5c4CCO5)CC3)ccc2C2CC12 (single isomer, unassigned) [Example 45-P2]	0.2 µM
O=C1Nc2cc(OCCCCN3CCN(c4cccc5sccc45)CC3)ccc2C2CC12 (single isomer, unassigned) [Example 42-P1]	0.143 µM
O=C1Nc2cc(OCCCCN3CCN(c4cccc5c4OCC5)CC3)ccc2C2CC12 (stereo not shown) [Example 44]	0.0112 µM
O=C1Nc2cc(OCCCCN3CCN(c4cccc(Cl)c4Cl)CC3)ccc2C2CC12 (stereo not shown) [Example 1]	1.01 µM
O=C1Nc2cc(OCCCCN3CCN(c4cccc5c4CCC5)CC3)ccc2C2CC12 (single isomer, unassigned) [Example 43-P2]	0.0924 µM
O=C1Nc2cc(OCCCCN3CCN(c4cccc(Cl)c4Cl)CC3)ccc2[C@H]2C[C@@H]12 (single isomer, unassigned) [Example 1-P1]	1.8 µM
O=C1Nc2cc(OCCCCN3CCN(c4cccc5c4OCC5)CC3)ccc2C2CC12 (single isomer, unassigned) [Example 44-P2]	0.00705 µM
O=C1Nc2cc(OCCCCN3CCN(c4cccc5c4CCO5)CC3)ccc2C2CC12 (stereo not shown) [Example 45]	0.253 µM
O=C1COc2ccc(OCCCCN3CCN(c4cccc(Cl)c4Cl)CC3)cc2N1 [RP5063, reference compound]	1.88 µM
O=C1Nc2cc(OCCCCN3CCN(c4cccc5sccc45)CC3)ccc2C2CC12 (stereo not shown) [Example 42]	0.313 µM
O=C1Nc2cc(OCCCCN3CCN(c4cccc5c4CC(F)(F)C5)CC3)ccc2C2CC12 (stereo not shown) [Example 46]	0.354 µM
O=C1Nc2cc(OCCCCN3CCN(c4cccc5c4CCC5)CC3)ccc2C2CC12 (single isomer, unassigned) [Example 43-P1]	0.194 µM
O=C1Nc2cc(OCCCCN3CCN(c4cccc5c4OC(F)(F)O5)CC3)ccc2C2CC12 (stereo not shown) [Example 41]	0.0508 µM
O=C1Nc2cc(OCCCCN3CCN(c4cccc(Cl)c4Cl)CC3)ccc2[C@@H]2C[C@H]12 (single isomer, unassigned) [Example 1-P2]	1.21 µM
O=C1Nc2cc(OCCCCN3CCN(c4ccc(Cl)s4)CC3)ccc2C2CC12 (stereo not shown) [Example 51]	0.0734 µM
O=C1Nc2cc(OCCCCN3CCN(c4cccc5c4CCC5)CC3)ccc2C2CC12 (stereo not shown) [Example 43]	0.158 µM
O=C1Nc2cc(OCCCCN3CCN(c4cccc5c4CCO5)CC3)ccc2C2CC12 (single isomer, unassigned) [Example 45-P1]	0.243 µM
O=C1Nc2cc(OCCCCN3CCN(c4cccc5c4OCC5)CC3)ccc2C2CC12 (single isomer, unassigned) [Example 44-P1]	0.0127 µM
O=C1Nc2cc(OCCCCN3CCN(c4cccc5ccsc45)CC3)ccc2C2CC12 (stereo not shown) [Example 48]	0.366 µM
O=C1Nc2cc(OCCCCN3CCN(c4cccc5sc(Cl)cc45)CC3)ccc2C2CC12 (stereo not shown) [Example 49]	0.128 µM
O=C1Nc2cc(OCCCCN3CCN(c4cccc5c4CC(F)(F)C5=O)CC3)ccc2C2CC12 (stereo not shown) [Example 47]	0.207 µM
O=C1Nc2cc(OCCCCN3CCN(c4cccc5sccc45)CC3)ccc2C2CC12 (single isomer, unassigned) [Example 42-P2]	0.693 µM
